These measurements were taken from BindingDB's records for patent WO2022109573.

target: Cystic fibrosis transmembrane conductance regulator [1-507,509-1480] (Human, UniProt P13569, DEL508-508); construct: 1-507,509-1480; assay: Chamber Assay of CFTR-mediated short-circuit currents
Sequence (P13569 as listed by the source): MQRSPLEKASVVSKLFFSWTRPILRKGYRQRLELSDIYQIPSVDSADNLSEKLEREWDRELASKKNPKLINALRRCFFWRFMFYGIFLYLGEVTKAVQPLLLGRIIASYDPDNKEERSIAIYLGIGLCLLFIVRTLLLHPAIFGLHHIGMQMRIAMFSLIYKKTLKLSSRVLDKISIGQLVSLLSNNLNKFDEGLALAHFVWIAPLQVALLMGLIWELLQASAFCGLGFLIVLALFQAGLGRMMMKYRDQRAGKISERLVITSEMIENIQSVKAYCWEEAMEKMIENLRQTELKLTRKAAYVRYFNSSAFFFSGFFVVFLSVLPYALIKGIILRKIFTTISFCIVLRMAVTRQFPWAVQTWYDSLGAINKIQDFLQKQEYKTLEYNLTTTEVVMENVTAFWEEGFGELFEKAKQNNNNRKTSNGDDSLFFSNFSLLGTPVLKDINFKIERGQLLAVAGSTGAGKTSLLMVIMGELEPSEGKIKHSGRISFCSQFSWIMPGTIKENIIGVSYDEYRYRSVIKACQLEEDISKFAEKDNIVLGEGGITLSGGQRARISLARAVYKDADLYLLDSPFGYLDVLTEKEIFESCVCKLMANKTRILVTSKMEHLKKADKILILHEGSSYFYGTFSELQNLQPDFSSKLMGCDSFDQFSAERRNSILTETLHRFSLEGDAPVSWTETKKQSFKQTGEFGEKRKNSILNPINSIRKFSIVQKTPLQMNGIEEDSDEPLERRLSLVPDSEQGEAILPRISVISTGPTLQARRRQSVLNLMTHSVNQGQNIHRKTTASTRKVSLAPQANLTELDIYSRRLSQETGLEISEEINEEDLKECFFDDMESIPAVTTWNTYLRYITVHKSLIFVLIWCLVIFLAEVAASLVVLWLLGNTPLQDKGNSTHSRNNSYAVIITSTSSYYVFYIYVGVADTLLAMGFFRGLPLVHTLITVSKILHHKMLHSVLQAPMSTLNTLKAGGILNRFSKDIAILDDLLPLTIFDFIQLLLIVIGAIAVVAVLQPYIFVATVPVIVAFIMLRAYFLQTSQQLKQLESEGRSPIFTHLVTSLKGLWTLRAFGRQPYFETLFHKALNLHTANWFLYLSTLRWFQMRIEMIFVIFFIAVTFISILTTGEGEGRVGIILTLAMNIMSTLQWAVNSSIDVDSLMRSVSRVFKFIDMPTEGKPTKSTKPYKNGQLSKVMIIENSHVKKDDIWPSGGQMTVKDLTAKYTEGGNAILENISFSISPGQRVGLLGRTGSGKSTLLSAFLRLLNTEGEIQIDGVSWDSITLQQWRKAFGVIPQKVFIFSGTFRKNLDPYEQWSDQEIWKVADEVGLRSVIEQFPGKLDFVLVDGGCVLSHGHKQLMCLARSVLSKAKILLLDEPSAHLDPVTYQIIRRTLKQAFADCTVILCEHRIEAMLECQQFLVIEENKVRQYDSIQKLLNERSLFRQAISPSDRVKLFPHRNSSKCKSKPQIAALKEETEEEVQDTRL
pEC50: −log10 of the molar value.
Overview of recorded pEC50 for various molecules

These recorded examples may help you get a feel for the data.
>  <compoundStructureString>
Nc1cc(C(F)(F)F)c2nc1-c1nnc(o1)[C@@](O)(C(F)(F)F)CCCCCC[C@H]1CCCN21

>  <pEC50>
> 6.30

$$$$
>  <compoundStructureString>
CCNc1cc(C(F)(F)F)c2nc1-c1nnc(o1)[C@@](O)(C(F)(F)F)CCCCC[C@@H]1CCCN21

>  <pEC50>
> 6.30

$$$$

The record that follows has no pEC50 shown yet.
Input line: Fill in: pEC50 of Nc1cc(C(F)(F)F)c2nc1-c1nnc(o1)[C@@](O)(C(F)(F)F)CCCC[C@@H]1CCCN21 is ___
Output line: > 6.30
